- Tested on: S. aureus strains presenting high levels of resistance
- experimental details: Bacterial growth on S. aureus strains presenting high levels of resistance
- Format: cell-based, Staphylococcus aureus
- protocol conditions: S. aureus Strain 1; 0.1 mg/ml
Quick list: Δ DO per entry.
Lab note: jot down the number only; don't add units.

Worked examples follow.
Oc1cc(Cl)ccc1Oc1ccc(Cl)cc1Cl [Triclosan, reference compound] : 0.441
COc1cc(O)c(Br)c(Cl)c1F [sr7615] : 0.250
COc1cc(O)c(Cl)c(Br)c1Cl [sr7616] : 0.276

Challenge: # get_value(readout='Δ DO', item= COc1cc(O)c(Cl)c(Cl)c1Cl [sr7585] )
Response given: 0.352

###

- System: Micrococcus luteus reference strain
- experimental details: Bacterial growth (optical density at 600 nm) on Micrococcus luteus reference strain
- Type: cell-based
- protocol conditions: in DMSO diluted in PBS, compared with triclosan
Quick list: Effect level per entry.

Worked examples follow.
COc1cc(O)c(I)cc1I : 2
COc1cc(O)c(Cl)cc1Br : 3
Oc1cc(I)c(F)cc1F : 2
COc1cc(O)c(Br)c(F)c1F : 2

Challenge: Which measured Effect level belongs to COc1cc(O)c(Cl)c(Cl)c1Cl , tested on Micrococcus luteus reference strain?
Response given: 3

Challenge: Which measured Effect level belongs to COc1c(Cl)cc(Cl)c(O)c1C , tested on Micrococcus luteus reference strain?
Response given: 2

Challenge: Which measured Effect level belongs to COc1cc(O)c(Cl)c(Br)c1Cl , tested on Micrococcus luteus reference strain?
Response given: 3

###

Quick list: Δ DO per entry.
- Tested on: E. coli strains presenting high levels of resistance
- experimental details: Bacterial growth on E. coli strains presenting high levels of resistance
- Type: cell-based, Escherichia coli
- protocol conditions: E. coli Strain 3; 0.1 mg/ml
Lab note: jot down the number only; don't add units.

Worked examples follow.
Oc1cc(Cl)ccc1Oc1ccc(Cl)cc1Cl [Triclosan, reference compound] : 0.948
COc1cc(O)c(Cl)c(Cl)c1Cl : 0.186
COc1cc(O)c(Br)c(Cl)c1F : 0.029

Turning now to a further record.
Challenge: # get_value(readout='Δ DO', item= COc1cc(O)c(Cl)c(Br)c1Cl )
Response given: 0.141

###

- Test system: E. coli strains presenting high levels of resistance
- experimental details: Bacterial growth on E. coli strains presenting high levels of resistance
- Type: cell-based, Escherichia coli
- Set-up: key: 0 = no effect; 1 = pure only; 2 = several concs; 3 = strong at each
- protocol conditions: E. coli Strain 2; molecules at 1, 0.5 and 0.1 mg/ml, triclosan at 0.1 mg/ml
Quick list: Effects (0 < 1 < 2 < 3) per entry.
Lab note: jot down the number only; don't add units.

Worked examples follow.
COc1cc(O)c(Br)c(Cl)c1F [sr7615] : 2
COc1cc(O)c(Cl)c(Br)c1Cl [sr7616] : 3

Challenge: Which measured Effects (0 < 1 < 2 < 3) belongs to COc1cc(O)c(Cl)c(Cl)c1Cl [sr7585] , tested on E. coli strains presenting high levels of resistance?
Response given: 3

Challenge: Which measured Effects (0 < 1 < 2 < 3) belongs to Oc1cc(Cl)ccc1Oc1ccc(Cl)cc1Cl [Triclosan, reference compound] , tested on E. coli strains presenting high levels of resistance?
Response given: 3

###

- Test system: Klebsiella pneumoniae
- experimental details: Bacterial growth screening on wild-type phenotype strain, K. pneumoniae
- Type: cell-based
property measured: Effect level, K. pneumoniae
Lab note: jot down the number only; don't add units.

COc1cc(O)c(Br)c(Cl)c1F : 2

Challenge: # get_value(readout='Effect level, K. pneumoniae', item= COc1cc(O)c(Cl)cc1Br )
Response given: 2

Challenge: # get_value(readout='Effect level, K. pneumoniae', item= COc1cc(O)c(Cl)c(Br)c1 )
Response given: 2

Challenge: # get_value(readout='Effect level, K. pneumoniae', item= COc1cc(O)c(Cl)c(Br)c1F )
Response given: 2

Challenge: # get_value(readout='Effect level, K. pneumoniae', item= COc1cc(O)c(Cl)c(Cl)c1Cl )
Response given: 2

Challenge: # get_value(readout='Effect level, K. pneumoniae', item= COc1cc(O)c(Cl)c(Br)c1Cl )
Response given: 3

###

- Tested on: Escherichia coli
- experimental details: Bacterial growth screening on wild-type phenotype strain, E. coli
- Type: cell-based
property measured: Effect level, E. coli

COc1cc(O)c(Cl)c(Br)c1F : 3
COc1cc(O)c(Cl)c(Br)c1 : 2
COc1cc(O)c(Cl)c(Br)c1Cl : 3
COc1cc(O)c(Cl)c(Cl)c1Cl : 3
COc1cc(O)c(Cl)cc1Br : 2

Turning now to a further record.
Challenge: # get_value(readout='Effect level, E. coli', item= COc1cc(O)c(Br)c(Cl)c1F )
Response given: 3

###

Quick list: Effect level per entry.
- Tested on: Micrococcus luteus reference strain
- experimental details: Bacterial growth (optical density at 600 nm) on Micrococcus luteus reference strain
- Type: cell-based
- Parameters: key: 0 = no effect, 1 = pure only, 2 = several concentrations, 3 = strong at all
- protocol conditions: in DMSO diluted in PBS, compared with triclosan

COc1cc(O)c(Cl)c(Br)c1 : 3

Challenge: # get_value(readout='Effect level', item= COc1cc(O)c(Cl)c(Br)c1F )
Response given: 3

Challenge: # get_value(readout='Effect level', item= COc1cc(O)c(Cl)c(F)c1F )
Response given: 2

Challenge: # get_value(readout='Effect level', item= COc1cc(O)c(Br)c(Cl)c1F )
Response given: 3

Challenge: # get_value(readout='Effect level', item= COc1cc(O)c(Cl)c(C)c1Cl )
Response given: 2

Challenge: # get_value(readout='Effect level', item= COc1cc(O)c(I)c(F)c1F )
Response given: 2

###

- Test system: S. aureus strains presenting high levels of resistance
- experimental details: Bacterial growth on S. aureus strains presenting high levels of resistance
- Assay type: cell-based, Staphylococcus aureus
- protocol conditions: S. aureus Strain 4; 0.1 mg/ml
property measured: Δ DO
Lab note: jot down the number only; don't add units.

Worked examples follow.
COc1cc(O)c(Cl)c(Cl)c1Cl : 0.405
COc1cc(O)c(Br)c(Cl)c1F : 0.351

Challenge: # get_value(readout='Δ DO', item= Oc1cc(Cl)ccc1Oc1ccc(Cl)cc1Cl [Triclosan, reference compound] )
Response given: 0.490

Challenge: # get_value(readout='Δ DO', item= COc1cc(O)c(Cl)c(Br)c1Cl )
Response given: 0.291

FYI, the data here is from patent US20210337789A1.
